target: T1, apical domain of cynomolgus CD71 (cynomolgus, UniProt A0A2K5X958 189-383); experiment: primary ELISA; further: test concentration or dose not given here
T1 construct: domain: apical domain; also called Cyno apical domain
T1 sequence (A0A2K5X958 entry or part of it): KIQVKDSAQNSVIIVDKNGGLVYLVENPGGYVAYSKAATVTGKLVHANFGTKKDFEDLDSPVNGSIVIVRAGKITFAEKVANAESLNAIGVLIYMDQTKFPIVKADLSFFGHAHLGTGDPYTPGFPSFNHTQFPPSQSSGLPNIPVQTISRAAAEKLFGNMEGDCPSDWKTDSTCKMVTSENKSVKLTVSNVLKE
Recorded RLU values for a group of binders are listed next.
# answer = value followed by unit

Past entries and their recorded results:
CD71-binding FN3 domain of SEQ ID NO: 180 (designed binder) MSLPAPKNLVVSRVTEDSARLSWTAPDAAFDSFFIGYLEPQPPGEAISLYVPGSERSYDLTGLKPGTEYNVTIQGVKGGFPSEPLIANFTT : 6.09e+06 RLU
CD71-binding FN3 domain of SEQ ID NO: 198 (designed binder) MSLPAPKNLVVSRVTEDSARLSWTAPDAAFDSFLIGYTEYSVYGEAIVLTVPGSERSYDLTGLKPGTEYTVWIMGVKGGIKSTPLSAISTT : 4.95e+06 RLU
CD71-binding FN3 domain of SEQ ID NO: 197 (designed binder) MSLPAPKNLVVSRVTEDSARLSWTAPDAAFDSFFIGYLEPQPPGEAISLLVPGSERSYDLTGLKPGTEYNVTIQGVKGGFPSEPLHAIFTT : 6.23e+06 RLU
CD71-binding FN3 domain of SEQ ID NO: 194 (designed binder) MSLPAPKNLVVSRVTEDSARLSWTAPDAAFDSFEIGYFENLYLGEAIVLTVPGSERSYDLTGLKPGTEYPVWIGGVKGGTWSVPLSTIFTT : 3.78e+06 RLU
CD71-binding FN3 domain of SEQ ID NO: 131 (designed binder) MSLPAPKNLVVSRVTEDSARLSWTAPDAAFDSFEIAYFENDWAGEAIVLTVPGSERSYDLTGLKPGTEYVVFIGGVKGGDFSPPLSAIFTT : 4.81e+06 RLU
CD71-binding FN3 domain of SEQ ID NO: 185 (designed binder) MGSLPAPKNLVVSRVTEDSARLSWTAPDAAFDSFEISYWEHTFNGEAIILFVPGSERSYDLTGLKPGTEYWVQIGGVKGGNWSAPLSAIFTT : 4.08e+06 RLU
CD71-binding FN3 domain of SEQ ID NO: 176 (designed binder) MSLPAPKNLVVSRVTEDSARLSWTAPDAAFDSFFIGYLEPQPPGEAIHLFVPGSERSYDLTGLKPGTEYWVQIGGVKGGNWSAPLSAIFTT : 6.06e+06 RLU
CD71-binding FN3 domain of SEQ ID NO: 151 (designed binder) MSLPAPKNLVVSRITEDSARLSWTAPDAAFDSFEIAYFETCRTGEAIVLTVPGSERSYDLTGLKPGTEYRVWIGGVKGGVWSRPLSAIVTT : 5.1e+06 RLU

Next binder, please.
What measured RLU goes with CD71-binding FN3 domain of SEQ ID NO: 179 (designed binder) MSLPAPKNLVVSRVTEDSARLSWTAPDAAFDSFFIGYLEPQPPGEAITLLVPGSERSYDLTGLKPGTEYNVTIQGVKGGFPSHPLVATTTT ?
4.71e+06 RLU
